Molecular target: human mGlu4 (Homo sapiens (Human), UniProt Q14833)
Sequence (Q14833 33-912): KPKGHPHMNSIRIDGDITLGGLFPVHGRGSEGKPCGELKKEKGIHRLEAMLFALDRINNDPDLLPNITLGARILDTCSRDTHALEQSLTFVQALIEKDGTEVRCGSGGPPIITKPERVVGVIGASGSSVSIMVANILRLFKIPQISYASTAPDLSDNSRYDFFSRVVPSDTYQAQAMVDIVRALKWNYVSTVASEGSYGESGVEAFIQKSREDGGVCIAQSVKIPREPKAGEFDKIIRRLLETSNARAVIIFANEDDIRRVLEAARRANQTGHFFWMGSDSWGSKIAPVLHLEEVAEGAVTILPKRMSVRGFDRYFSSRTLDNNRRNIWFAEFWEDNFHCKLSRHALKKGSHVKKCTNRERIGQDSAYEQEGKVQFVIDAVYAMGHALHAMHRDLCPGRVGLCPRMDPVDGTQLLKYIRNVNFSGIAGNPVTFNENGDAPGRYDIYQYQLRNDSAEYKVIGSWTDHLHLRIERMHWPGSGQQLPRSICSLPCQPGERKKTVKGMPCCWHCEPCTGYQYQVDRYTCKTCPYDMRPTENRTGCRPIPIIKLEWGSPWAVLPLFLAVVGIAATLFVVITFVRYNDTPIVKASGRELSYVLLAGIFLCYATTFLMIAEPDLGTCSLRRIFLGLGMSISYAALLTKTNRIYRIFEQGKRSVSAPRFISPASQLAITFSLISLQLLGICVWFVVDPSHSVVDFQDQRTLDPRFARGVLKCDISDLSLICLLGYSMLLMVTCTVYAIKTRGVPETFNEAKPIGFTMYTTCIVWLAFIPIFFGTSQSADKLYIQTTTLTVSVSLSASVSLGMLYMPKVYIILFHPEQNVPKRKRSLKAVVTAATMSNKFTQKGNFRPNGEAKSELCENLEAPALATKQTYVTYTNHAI
Assay: mGlu4 PAM assay in human mGlu4/Gqi5 cells with ~EC20 glutamate (Hamamatsu FDSS)
Format: cell-based
Conditions: ~EC20 concentration of glutamate, read-out: mGlu4 PAM EC50
Measurement type: EC50 (nM)

Cn1nc(OCC2COC(C)(C)C2)c2ccc(NC(=O)c3ccccn3)cc21 (stereo not drawn)    75.6
Cn1nc(OC2CCOC[C@H]2F)c2ccc(NC(=O)c3ncccc3O)cc21 (stereo partly drawn)    132
Cn1nc(OC[C@@H]2CCOC2)c2ccc(NC(=O)c3ncccc3N)cc21    27.3

[P] Cn1nc(OC2CCOC[C@H]2F)c2ccc(NC(=O)c3ccccn3)cc21 (stereo partly drawn)
[Q] [2H]C([2H])([2H])Oc1nn(C)c2cc(Nc3n[nH]c4cccnc34)ccc12
Q: Compare P and Q by numeric EC50 and name the larger one. // output: label of the selected item
Result: Q
(Q: 294 nM, P: 84.7 nM)

[I] Cn1nc(OCC2CCOC2)c2ccc(NC(=O)c3ccc(F)cn3)cc21 (stereo not drawn)
[II] Cn1nc(OCC2CCOCC2)c2ncc(NC(=O)c3ccccn3)cc21
[III] Cn1nc(OCC2CCOC2)c2ncc(NC(=O)c3ccccn3)cc21 (stereo not drawn)
Q: Kindly order the items shown according to EC50, from the highest value down. Put the labels in the requested order and list them out.
Result: III, II, I

[P] Cn1nc(OCC2COCCO2)c2ccc(Nc3n[nH]c4cccnc34)cc21 (stereo not drawn)
[Q] Cn1nc(OC2CCS(=O)(=O)CC2)c2ccc(NC(=O)c3ncccc3N)cc21
[R] Cn1nc(OC2CCOC(C)(C)C2)c2ccc(NC(=O)c3ccccn3)cc21 (stereo not drawn)
[S] Cn1nc(OCCOc2ccc(F)cc2)c2ccc(Nc3n[nH]c4cccnc34)cc21
[T] Cn1nc(OCC2CCOCC2)c2ncc(Nc3n[nH]c4cccnc34)cc21
Q: Rank entries according to their EC50, from the largest number down. Write the labels, ordered according to the request.
Result: S, P, T, Q, R
(S: 852 nM, P: 361 nM, T: 209 nM, Q: 142 nM, R: 80.2 nM)

* * *

Target: UniProt Q14833
Assay: mGlu4 PAM assay in human mGlu4/Gqi5 cells with ~EC20 glutamate (Hamamatsu FDSS)
Assay type: cell-based
Conditions: ~EC20 concentration of glutamate, read-out: mGlu4 PAM EC50
Description: The disclosed compounds and compositions can be evaluated for their ability to act as a potentiatior of metabotropic glutamate receptor activity, in particular mGluR4 activity, by any suitable known methodology known in the art. […] The cells were loaded with either a Ca2+-sensitive fluorescent dye or the thallium responsive dye and the plates were washed and placed into a suitable kinetic plate reader. […]
pEC50: −log10 of the molar value.
Measurement type: pEC50

Cn1nc(OCC2CC2)c2ccc(Nc3n[nH]c4cccnc34)cc21    6.79

[a] Cn1nc(Oc2ncccc2C#N)c2ccc(Nc3n[nH]c4cccnc34)cc21
[b] Cn1nc(OCC2CCOCC2)c2ccc(NC(=O)c3ncccc3O)cc21
Q: Identify the item whose pEC50 is the smaller number: a or b Mark your selection by writing its label.
Result: a

* * *

Biological target: human mGlu4 (Homo sapiens (Human), UniProt Q14833)
Assay: mGlu4 PAM assay in human mGlu4/Gqi5 cells with ~EC20 glutamate (Hamamatsu FDSS)
Format: cell-based
Conditions: ~EC20 concentration of glutamate, read-out: mGlu4 PAM EC50
pEC50: −log10 of the molar value.
Measurement type: pEC50

Look over these answered cases.
Cn1nc(OCC2CCOC(C)(C)C2)c2ccc(NC(=O)c3ccccn3)cc21 (centres unmarked)    7.23
Cn1nc(OCC2CCOCC2)c2ncc(Nc3n[nH]c4ncccc34)cc21    6.45
Cn1nc(C(=O)NC2CCOC2)c2ccc(NC(=O)c3ncccc3N)cc21 (centres unmarked)    6.38

[A] Cn1nc(OCC2CCOCC2)c2ccc(Nc3n[nH]c4ncccc34)cc21
[B] Cn1nc(OCC2CCOC2)c2ccc(NC(=O)c3ncccc3N)cc21 (centres unmarked)
Q: Lab note: check whether A or B has the lower measured pEC50. Answer by stating the label of the chosen item.
Result: A

[a] Cn1nc(OC[C@H]2CCOC2)c2ncc(NC(=O)c3ncccc3N)cc21
[b] Cn1nc(OCCN2CCOCC2)c2ccc(Nc3n[nH]c4ncccc34)cc21
[c] Cn1nc(OC[C@@H]2COCCO2)c2ccc(NC(=O)c3ncccc3N)cc21 [Compound 130]
[d] [2H]C([2H])([2H])n1nc(OCC2CCOC2)c2ccc(NC(=O)c3ccccn3)cc21 (centres unmarked)
Q: // sort entries: pEC50, high to low Provide the ranking by listing each label in its place in the requested order.
Result: c, d, a, b
(c: 7.61, d: 7.30, a: 6.78, b: 6.40)

[a] Cn1nc(OC[C@H]2CCOC2)c2ccc(NC(=O)c3ncccc3N)cc21
[b] Cc1cc(COc2nn(C)c3cc(Nc4n[nH]c5cccnc45)ccc23)no1
[c] Cn1nc(OC2CCS(=O)(=O)CC2)c2ccc(Nc3n[nH]c4ncccc34)cc21
[d] Cn1nc(OCC2CCOC(C)(C)C2)c2ccc(NC(=O)c3ncccc3N)cc21 (centres unmarked)
Q: Ranking field: pEC50; order: falling. To answer, write out the labels according to the requested order.
Result: a, d, b, c

[A] Cn1nc(OCC2CCOC2)c2ccc(Nc3n[nH]c4cccnc34)cc21 (centres unmarked)
[B] Cn1nc(Oc2ccc(C#N)cn2)c2ccc(Nc3n[nH]c4cccnc34)cc21
[C] Cn1nc(OCC2CCOC2)c2ccc(NC(=O)c3ncccc3F)cc21 (centres unmarked)
Q: Descending sort on pEC50 required. Please express your ranking as an ordered list of the labels.
Result: A, B, C

* * *

Target: human mGlu4 (Homo sapiens (Human))
Assay: mGlu4 PAM assay in human mGlu4/Gqi5 cells with ~EC20 glutamate (Hamamatsu FDSS)
Type: cell-based
Conditions: ~EC20 concentration of glutamate, read-out: mGlu4 PAM EC50
Measurement type: EC50 (nM)

Cc1ccoc1C(=O)Nc1ccc2c(OCC3CCOC3)nn(C)c2c1 (centres unmarked) [Compound 96]    339
Cn1nc(OCC2CCOC2)c2ncc(Nc3n[nH]c4cccnc34)cc21 (centres unmarked) [Compound 60]    293

[a] Cn1nc(OC2CCS(=O)(=O)C2)c2ccc(NC(=O)c3ccccn3)cc21 (centres unmarked) [Compound 53]
[b] Cn1nc(OCC2CCCOC2)c2ccc(NC(=O)c3ncccc3N)cc21 (centres unmarked) [Compound 86]
[c] Cn1nc(OCC2COC2)c2ccc(Nc3n[nH]c4cccnc34)cc21 [Compound 27]
Q: Please put the entries in order of rising EC50. Output spec: labels arranged per the requested ranking.
Result: c, b, a

Provenance of the data: patent US10508105B2
